settings: in cyclohexane, 293.18 K
measurement-kind: solubility (mole fraction)

smiles-record: Cc1ccc2cc(C)ccc2c1
data-value: 0.03

* * *

conditions: in n-heptane, 288.85 K

smiles-record: Cc1ccc2cc(C)ccc2c1
solubility (mole fraction): 0.0289

* * *

details: in n-heptane, 332.39 K

smiles-record: Cc1ccc2cc(C)ccc2c1
solubility (mole fraction): 0.132

* * *

details: in isopropanol, 309.65 K

smiles-record: Cc1ccc2cc(C)ccc2c1
solubility (mole fraction): 0.0136

* * *

details: in isooctane, 288.36 K
measurement-kind: solubility (mole fraction)

smiles-record: Cc1ccc2cc(C)ccc2c1
data-value: 0.0234

* * *

conditions: in ethyl acetate, 325.2 K

smiles-record: Cc1ccc2cc(C)ccc2c1
solubility (mole fraction): 0.158
